Value source: patent EP4671273A1

TARGET OR SYSTEM: recombinant human IL-21 (rhIL-21) (human, UniProt Q9HBE4 30-162, limits assumed)
Sequence (Q9HBE4 30-162 limits assumed): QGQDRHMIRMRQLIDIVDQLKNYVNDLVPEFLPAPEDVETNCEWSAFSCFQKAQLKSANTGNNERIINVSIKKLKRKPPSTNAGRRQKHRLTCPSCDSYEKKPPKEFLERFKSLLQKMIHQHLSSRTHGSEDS
ASSAY PROCEDURE: cell-based or functional assay
% pSTAT3+ Jurkat cells, 0.1 nM rhIL-21 + 1.5925 nM antibody: recorded values
I only need the number, in %, no unit after it.

>>> value_measured("FYP014 (antibody, human IgG1, V domains shown, human IgG1; also called EP3103813A1 clone 366.328.10.63) VH: EVQLVESGGGLVKPGGSLRLSCAASGFIFSSYSMNWVRQAPGKGLEWVSSITSGSYYIHYADSVKGRFTISRDNAKNSLYLQMNSLRAEDTAVYYCVRERGWGYYGMDVWGQGTTVTVSS VL: AIQLTQSPSSLSASVGDRVTITCRASQDIDSALAWYQQKPGKAPKILIHDASSLESGVPSRFSGSGSGTDFTLTISSLQPEDFATYYCQQFNSYPYTFGQGTKLEIK")
4.78
>>> value_measured("LKK631 (antibody, human IgG1, V domains shown) VH: EVQLQQFGAEVVKPGASVKMSCKASGYTFTDYNMNWVKQSHEKSLEWIGDIHPKFHSTNYNQKFKGKATLTIDTSSSTAYMELRNLTSEDTAVYYCARVGNYVYFVMDYWGQGTSVTVSS VL: SIVMTQTPKFLLVSAGDRVTITCKASQSVSNDVAWYQQKPGQSPKLLIYYASNRYTGVPDRFSGSGYGTDFTFTISTVQAEDLAVYFCQQDYTSPWTFGGGTKLEIK")
58.7

Now take the following binder into account.
Asked: Given the entry MIZ926 (antibody, human IgG1, V domains shown) VH: EVQLVESGGGSVKPGGSLKLSCAASGLTFSHYYMYWVRQTPEKRLEWVAIISDGGDYTHYSDSVKGRFTISRDNAKNNLYLQMSSLQSEDTAMYYCAGDYGYGYEGWFAYWGQGTLVTVST VL: DIVMTQSQKFMSTSVGDRVSVTCKASQNVDTYVAWYQQKPGQSPKALIYSTSYRYSGVPDRFTGSGSGTDFTLTISNVQSEDLAEYFCQQYNSYPWTFGGGTKLEIK , report its measured % pSTAT3+ Jurkat cells, 0.1 nM rhIL-21 + 1.5925 nM antibody.
Given back: 64.8
